assayOverview: BET inhibitor-based combinations targeting novel dependencies in MECOM-rearranged (r) AML: AML-194 cell line (AID 2202237; further: nearly all actives have a fitted effect of over 40% in size)
experimentalConditions: AML-194 (MECOM-r AML) viability, CellTiter-Glo, 48 h; series mostly up to 46 µM
Records with an inconclusive call do not appear. The source made the active and inactive calls. The call rests on the fitted dose curve; in most records, active means well fitted inhibition curve with a large enough effect; inconclusive means small, poorly fitted or top-dose-only effect; inactive means flat fitted curve, though single readings scatter.
Return exactly one item of 1 (yes) (active), 0 (no) (inactive)

INSERT INTO results (molecule, category) VALUES
  ('COc1ccc(-c2coc3cc(O)cc(O)c3c2=O)cc1', '0 (no)'),
  ('COCCOc1ccc(N2CCN(CCn3ncc4c3nc(N)n3nc(-c5ccco5)nc43)CC2)cc1', '0 (no)'),
  ('O[C@@H](COc1cccc2ncccc12)CN1CCN(C2c3ccccc3[C@@H]3[C@H](c4ccccc42)C3(F)F)CC1 (stereo not given in full)', '1 (yes)'),
  ('Cc1ccc(C(N)=O)cc1Nc1nccc(-c2cn(C(C)C)c3cnccc23)n1', '1 (yes)'),
  ('CC(C)C[C@H](NC(=O)[C@H](Cc1ccccc1)NC(=O)c1cnccn1)B(O)O', '1 (yes)'),
  ('O=C(O)c1cc(O)c2c(c1)C(=O)c1cccc(O)c1C2=O', '0 (no)'),
  ('NC(=O)c1cnccn1', '0 (no)'),
  ('Oc1ccc([C@@H]2Oc3ccc(O)cc3[C@@H]3CCC[C@@H]32)cc1', '1 (yes)');

Q: Which outcome did this test record for the molecule `CN[C@@H](C)C(=O)N[C@H]1CN(C(=O)CC(C)C)CC[C@H]2CC[C@@H](C(=O)NC(c3ccccc3)c3ccccc3)N2C1=O` ?
Result: 0 (no)

Q: Which outcome did this test record for the molecule `CCN(CC)CCCCNc1ncc2cc(-c3cc(OC)cc(OC)c3)c(NC(=O)NC(C)(C)C)nc2n1` ?
Result: 1 (yes)

* * *

system: Cellular tumor antigen p53 (Homo sapiens)
assayOverview: Primary qHTS for small molecule compounds that upregulate eGFP-tagged delta133p53alpha (in N-terminal) cells. (AID 2060322);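 further: cells pre-induced with doxycycline then dosed without doxycycline; 0% = DMSO vehicle and 100% = reference activator; nearly all actives have a fitted effect of over 75% in size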
experimentalConditions: NCI-H358 eGFP-delta133p53alpha fluorescence, 24 h; active compounds read high
Records with an inconclusive call do not appear.
For each entry below, report its activation value.
Give bare numbers, in %.

INSERT INTO results (compound, system, result) VALUES
  ('O=C1OC(c2ccc(O)cc2)(c2ccc(O)cc2)c2ccccc21', 'Cellular tumor antigen p53 (Homo sapiens)', 10.7);

Each of the following entries comes with a recorded value; kindly state activation for each.
1. c1cc(-c2cc(C3CCNCC3)[nH]n2)ccn1
2. CC(=O)N[C@@H](CC(C)C)C(=O)O
3. CCCCc1ccc(NS(=O)(=O)c2ccc(C)c(C(=O)N3CCN(c4cccc(C)c4C)CC3)c2)cc1

Result:
1. 1.79
2. 0
3. -4.4

Each of the following entries comes with a recorded value; kindly state activation for each.
1. CCCc1nc(C(C)(C)O)c(C(=O)O)n1Cc1ccc(-c2ccccc2-c2nn[nH]n2)cc1
2. CCN(CC)C(=O)C1CN2CCc3cc(OC)c(OC)cc3C2CC1OC(C)=O (stereo not drawn)
3. Cn1c(=O)c2c(nc(/C=C/c3cccc(Cl)c3)n2C)n(C)c1=O
4. COC(=O)C1=COC(O[C@@H]2O[C@H](CO)[C@@H](O)[C@H](O)[C@H]2O)[C@@H]2[C@@](C)(O)[C@@H](OC(=O)/C=C/c3ccccc3)C[C@]12O (stereo partly drawn)
5. Nc1nc2c(cnn2CCCc2ccc(O)cc2)c2nc(-c3ccco3)nn12

Result:
-5.2
-9.21
-0.199
15.2
-11

Each of the following entries comes with a recorded value; kindly state activation for each.
1. O=C(O)CC(O)C(=O)O (stereo not drawn)
2. C/C(=C\C=C\C(C)C1CCC2(C)C3CCC4C(C)(C)C(=O)CCC45CC35CCC12C)C(=O)O (stereo not drawn)
3. C=C[C@@](C)(O)CC/C=C(\C)C(=O)O[C@@H]1[C@@H]2O[C@]2(C)[C@H]2[C@H](O[C@@H]3O[C@H](CO)[C@@H](O)[C@H](O)[C@H]3O)OC=C[C@@]12O
4. COC(=O)C1C2CC3c4[nH]c5cc(OC)ccc5c4CCN3CC2CC(OC(=O)c2cc(OC)c(OC)c(OC)c2)C1OC (stereo not drawn)
5. NC(=O)c1cccc(-c2cccc(OC(=O)NC3CCCCC3)c2)c1

Result:
1. -26.6
2. 5.36
3. -3.57
4. 4.12
5. -16.3

Each of the following entries comes with a recorded value; kindly state activation for each.
1. C=C[C@H]1[C@H](O[C@@H]2O[C@H](CO)[C@@H](O)[C@H](O)[C@H]2O)OC=C(C(=O)OC)[C@H]1C/C=C(/C=O)[C@@H]1C(C(=O)OC)=CO[C@@H](O[C@@H]2O[C@H](CO)[C@@H](O)[C@H](O)[C@H]2O)[C@@H]1C=C
2. CN(C)c1ccnc2sc3c(=O)n(N4CCCCCC4)cnc3c12
3. O=c1[nH]cnc2nc[nH]c12
4. CC(NC(=O)CCc1nc2ccccc2c(=O)[nH]1)c1ccccc1 (stereo not drawn)
5. C=C1CC[C@H]2[C@@](C)(CCC[C@@]2(C)C(=O)O)[C@@H]1CCC(C)CCO (stereo partly drawn)
6. CC(C)(O)c1ccc2c(c1)C(O)CC1C(C)(C(=O)O)CCCC21C (stereo not drawn)

Result:
[-22.1, -18.1, -9.6, -1.43, 9.16, 5.34]

* * *

system: Cellular tumor antigen p53 (Homo sapiens)
assayOverview: Primary qHTS for small molecule compounds that upregulate eGFP-tagged delta133p53alpha (in N-terminal) cells. (AID 2060322);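 further: cells pre-induced with doxycycline then dosed without doxycycline; 0% = DMSO vehicle and 100% = reference activator; nearly all actives have a fitted effect of over 75% in size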
experimentalConditions: NCI-H358 eGFP-delta133p53alpha fluorescence, 24 h; active compounds read high
Inconclusive results are not listed. Activity calls are given as the source filed them. The call rests on the fitted dose curve; in most records, active means well fitted activation curve with a large enough effect; inconclusive means small, poorly fitted or top-dose-only effect; inactive means no such curve, though single readings can be large or run the other way. Square brackets hold non-standard residues; d marks the D form. Peptide text beside a SMILES is read from it. ξ: configuration not given here. ξLac(3-iPr) = CC(C)CC(O)C(=O)O; NMeV = CN[CH](C(=O)O)C(C)C; βAla = NCCC(=O)O
observedProperty: activation

INSERT INTO assay_data (compound, system, observedproperty, result) VALUES
  ('Cc1nc(C(=O)N2CCC[C@H]2Cc2nnc(-c3ccccc3)o2)c(-c2ccccc2F)s1', 'Cellular tumor antigen p53 (Homo sapiens)', 'activation', '3.82% (inactive)'),
  ('CC(C)CC1OC(=O)C2CCCN2C(=O)CCNC(=O)C(Cc2ccccc2)NC(=O)C(C(C)C)N(C)C(=O)C(C(C)C)N(C)C1=O (stereo not drawn) (cyclo([ξLac(3-iPr)][NMeV][NMeV]F[βAla]P); configuration not given here)', 'Cellular tumor antigen p53 (Homo sapiens)', 'activation', '-23.7% (inactive)'),
  ('CCCCCCCN(CC)CCCC(O)c1ccc(NS(C)(=O)=O)cc1 (stereo not drawn)', 'Cellular tumor antigen p53 (Homo sapiens)', 'activation', '5.18% (inactive)');

Each of the following entries comes with a recorded value; kindly state activation for each.
1. C/C=C/C=C/C(=O)OC1CC/C=C/C(O)C(O)C(CCC)OC1=O (stereo not drawn)
2. O=C(c1ccccc1)c1c(O)cc(O)cc1O[C@@H]1O[C@H](CO)[C@@H](O)[C@H](O)[C@H]1O
3. CC(C(=O)O)c1ccc(C(=O)c2ccccc2)s1 (stereo not drawn)
4. COc1c(C(O)CC(C)C)ccc2c1C(=O)OCc1cc(C)cc(O)c1O2 (stereo not drawn)
5. C/C=C/C1=CC2=CC(=O)C(C)(O)C(OC(=O)c3c(C)cc(O)cc3O)C2CO1 (stereo not drawn)

Result:
1: -12.2% (inactive); 2: -13% (inactive); 3: 0% (inactive); 4: -2.68% (inactive); 5: -12.2% (inactive)

* * *

system: Retinal dehydrogenase 2 (Homo sapiens)
assayOverview: qHTS for Inhibitors of the Aldehyde Dehydrogenase Family (ALDH1A2) Confirmation screens (AID 2061314); further: nearly all actives have a fitted effect of over 65% in size
experimentalConditions: ALDH1A2 enzyme inhibition qHTS confirmation; series mostly up to 45.9 µM
Records with an inconclusive call do not appear. Activity calls are given as the source filed them. Calls come from the whole dose curve; as a rule, active = well fitted inhibition curve with a large enough effect; inconclusive = small, poorly fitted or top-dose-only effect; inactive = no such curve, though single readings can be large or run the other way.
Return exactly one item of TRUE = active, FALSE = inactive

Q: Which outcome did this test record for the molecule CC1CCC23COC(=O)C2=CC(O)CC3C1(C)CCC1=CC(O)OC1=O (centres undefined) ?
Result: FALSE

Q: Which outcome did this test record for the molecule `COc1cccc(OC)c1C1=Nn2c(nnc2-c2ccccc2C)SC1` ?
Result: FALSE

Q: Which outcome did this test record for the molecule `Cc1nc(N=Nc2cc(S(=O)(=O)O)c3cc([N+](=O)[O-])cc(S(=O)(=O)O)c3c2)c(COP(=O)(O)O)c(C=O)c1O` ?
Result: FALSE

* * *

system: Aldehyde dehydrogenase, mitochondrial (Homo sapiens)
assayOverview: qHTS for Inhibitors of the Aldehyde Dehydrogenase Family (ALDH2) Primary screen (AID 2061308);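 further: plate controls were vehicle for no effect and reference inhibitor for full effect; nearly all actives have a fitted effect of over 55% in size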
experimentalConditions: ALDH2 enzyme inhibition qHTS, 1536-well; series mostly up to 56 µM
Inconclusive results are not listed. Activity calls are given as the source filed them. Calls come from the whole dose curve; as a rule, active = well fitted inhibition curve with a large enough effect; inconclusive = small, poorly fitted or top-dose-only effect; inactive = flat fitted curve, though single readings scatter.
observedProperty: activity change, negative = inhibition

Worked cases, activity change, negative = inhibition given:
INSERT INTO measurements (compound, observedproperty, result) VALUES
  ('COc1ccc(CCN2CCN(CCCc3ccccc3)CC2)cc1OC', 'activity change, negative = inhibition', 'inactive'),
  ('CC1CCCC(O)CC(=O)c2c(O)cc(O)cc2CC(=O)O1 (stereo not given)', 'activity change, negative = inhibition', 'inactive'),
  ('Cn1ncc(Cl)c1-c1cc(C(=O)N[C@H](CN)Cc2cccc(F)c2)sc1Cl', 'activity change, negative = inhibition', 'inactive'),
  ('O=C(NC1CCCc2c1cnn2-c1ccc(F)cc1F)c1ccc(C(=O)c2ccccc2)cc1 (stereo not given)', 'activity change, negative = inhibition', 'inactive');

Let us examine a further case.
Q: Provide activity change, negative = inhibition, recorded with Aldehyde dehydrogenase, mitochondrial (Homo sapiens), of `CC(C)S(=O)(=O)NC[C@H](C)c1ccc(-c2ccc(CCNS(C)(=O)=O)cc2)cc1`
Result: inactive
